Target: Human immunodeficiency virus type 1 reverse transcriptase (Human immunodeficiency virus 1, UniProt Q72547, Y181C)
Experiment: Inhibition of HIV1 reverse transcriptase p66/p51 Y181C mutant after 30 mins by liquid scintillation counting
pKi: −log10 of the molar value.
Where pKi equals or exceeds 4, the correct label is yes; where it does not, the label is no.

INSERT INTO assay_data (itemsmiles, label) VALUES
  ('Cc1ccc(OCCn2ccc(=O)n(Cc3cc(C)cc(C)c3)c2=O)cc1', 'no');

INPUT: Is pKi for O=c1ccn(C/C=C/c2ccccc2)c(=O)n1Cc1cc(Cl)cc(Cl)c1 at or above 4?
OUTPUT: yes

INPUT: Check if pKi >= 4 (inclusive). Item: O=c1ccn(C/C=C/c2ccccc2)c(=O)n1Cc1cc(Br)cc(Br)c1
OUTPUT: yes

INPUT: State whether the measured pKi reaches 4, counting equality as reaching it, for Cc1cc(Br)cc(Cn2c(=O)ccn(C/C=C/c3ccccc3)c2=O)c1
OUTPUT: yes

INPUT: Assess whether reported pKi for Cc1cc(C)cc(Cn2c(=O)ccn(C/C=C/c3ccccc3)c2=O)c1 sits at 4 or higher.
OUTPUT: yes
